Entries and their peptide exchange yield values follow.
- assay_system: HLA-B*08 (human)
- assay_name: UV peptide exchange ELISA

>  <binder>
VIKEKALTL

>  <peptide exchange yield>
50 to 75%

$$$$
>  <binder>
ALKLRVAVL

>  <peptide exchange yield>
> 75%

$$$$
>  <binder>
MAQFKEISL

>  <peptide exchange yield>
> 75%

$$$$
>  <binder>
AIISRLVAL

>  <peptide exchange yield>
> 75%

$$$$
>  <binder>
ELKKKEYEEL

>  <peptide exchange yield>
> 75%

$$$$
>  <binder>
RAQLKLVAL

>  <peptide exchange yield>
> 75%

$$$$
>  <binder>
VASPKHCVL

>  <peptide exchange yield>
50 to 75%

$$$$
>  <binder>
MLKQKVEEL

>  <peptide exchange yield>
> 75%

$$$$
